test: physchem; format: physicochemical; settings: Solubility as such
MEASURED ENDPOINT: solubility (µg/mL)

COMPOUND | solubility (µg/mL)
CCON=Cc1c2c(O)c3c(O)c(C)c4c(c3c1O)C(=O)[C@@](C)(O/C=C/[C@H](OC)[C@@H](C)[C@@H](OC(C)=O)[C@H](C)[C@H](O)[C@H](C)[C@@H](O)[C@@H](C)/C=C/C=C(/C)C(=O)N2)O4 [3-(ethyloximinomethyl)rifamycin SV, reference compound] | 120

I: CO[C@H]1/C=C/O[C@@]2(C)Oc3c(C)c(O)c4c(O)c(c(C=NNC(=O)c5ccncc5)c(O)c4c3C2=O)NC(=O)/C(C)=C\C=C\[C@H](C)[C@H](O)[C@@H](C)[C@@H](O)[C@@H](C)[C@H](OC(C)=O)[C@@H]1C [reference compound]
II: CO[C@H]1/C=C/O[C@@]2(C)Oc3c(C)c(O)c4c(O)c(c(C=NOCCBr)c(O)c4c3C2=O)NC(=O)/C(C)=C\C=C\[C@H](C)[C@H](O)[C@@H](C)[C@@H](O)[C@@H](C)[C@H](OC(C)=O)[C@@H]1C [reference compound]
## Task Could you tell me which of these two has the smaller solubility figure? First: I Second: II Choose, then provide that item's label.
## Result I

The reported measurements were obtained from patent US4150023A.
